These measurements were taken from ChEMBL document CHEMBL4513216.

INHIBITION: recorded values
# Test system: Plasmodium falciparum
# protocol: Screen against P. falciparum Asexual Blood Stage (ABS), at 5uM
# Format: functional, Dd2
# experimental-context: tested at 5 uM
Hit rate of the full screen: of about 65,000 compounds, about 2,100 (3.2%) showed an effect of 50% or more. The median lay at about -52%. The sample holds strong results, similar compounds and a random draw of the others, so the mix is not that of the screen.
Response body: numeric value in %, unit text excluded.

Known results for molecules:
{"molecule": "COc1cc(C)sc1C(=O)NCCC(=O)N(C)c1ccccc1", "measured-parameter": "INHIBITION", "unit-info": "%", "assay-result": 33.9}
{"molecule": "CN(C)C(=O)c1ccc(C2CCCN2C(=O)c2cccc3c2OCC3)s1 (configuration not stated)", "measured-parameter": "INHIBITION", "unit-info": "%", "assay-result": -53.8}
{"molecule": "COc1cc(C)sc1C(=O)NCCNc1ccccc1", "measured-parameter": "INHIBITION", "unit-info": "%", "assay-result": 18.7}
{"molecule": "COc1cccc(CN2CCC3(CC2)CCN(c2ncccn2)C3)c1", "measured-parameter": "INHIBITION", "unit-info": "%", "assay-result": 0.0663}
{"molecule": "COCCn1ccnc1CN1CCc2[nH]cnc2C1c1ccccn1 (configuration not stated)", "measured-parameter": "INHIBITION", "unit-info": "%", "assay-result": -11.9}

Quote Plasmodium falciparum INHIBITION for entry COc1cc(C)sc1C(=O)NCCC(=O)N(C)Cc1ccccc1 .
59.3

Quote Plasmodium falciparum INHIBITION for entry CCn1nnc2c1C(COCCN(C)C)CN(Cc1ccco1)C2 (configuration not stated) .
-67.6

---

# Tested on: Plasmodium falciparum
# protocol: Screen against P. falciparum Asexual Blood Stage (ABS), at 5uM
# Assay type: functional, Dd2
# experimental-context: tested at 5 uM
Out of some 65,000 compounds screened, about 2,100 (3.2%) showed an effect of 50% or more. The median lay at about -52%. The sample holds strong results, similar compounds and a random draw of the others, so the mix is not that of the screen.
Classify by measured INHIBITION: 1.0 if it is equal to or exceeds 40%, 0.0 if it is smaller.

Example results:
{"molecule": "O=C(NCC(c1cccs1)N1CCOCC1)c1ccc(F)cc1Cl (stereo not drawn)", "classification": 0.0}
{"molecule": "CN1CCN(Cc2ccccc2CNC(=O)c2cc(Cl)ccc2F)CC1", "classification": 1.0}
{"molecule": "O=C(NCCN1CCCC1)c1cc2c(s1)CCN2C(=O)c1ccccc1", "classification": 0.0}

Determine whether this molecule has INHIBITION no lower than 40%: CCCc1cc(N2CCC(NC3CCC(O)CC3)CC2)nc(C)n1 (stereo not drawn)
0.0

Determine whether this molecule has INHIBITION no lower than 40%: COCCNC(=O)CN(C)C(C)c1nc(C)no1 (stereo not drawn)
0.0

Determine whether this molecule has INHIBITION no lower than 40%: Cc1cc(N2CCC(Cc3ncccn3)C2)ncn1 (stereo not drawn)
0.0

Determine whether this molecule has INHIBITION no lower than 40%: Cc1nc(CN2CC[C@@H](OCC3CC3)[C@@H]2Cc2cccnc2)cs1
0.0

Determine whether this molecule has INHIBITION no lower than 40%: CN1CCN(C(CNC(=O)c2ccc(Cl)cc2F)c2cccs2)CC1 (stereo not drawn)
1.0

---

# Test system: Plasmodium falciparum
# protocol: Screen against P. falciparum Asexual Blood Stage (ABS), at 5uM
# Format: functional, Dd2
# experimental-context: tested at 5 uM
Hit rate of the full screen: of about 65,000 compounds, about 2,100 (3.2%) showed an effect of 50% or more. The median lay at about -52%. What follows is part of a selection rich in strong results, with near analogues and random picks from the rest.
Classify by measured INHIBITION: class 1 if it is equal to or exceeds -30%, class 0 if it is smaller.

Example results:
{"molecule": "Cc1cc(N2CCCN(c3ccnc(C)c3)CC2)ccn1", "classification": "class 0"}
{"molecule": "CCC(C(=O)Nc1ccc(-c2nc(C)n[nH]2)cc1)N1CCCC1=O (stereo unspecified)", "classification": "class 0"}
{"molecule": "Cn1ccnc1CN(Cc1ccccn1)Cc1ccccc1Cl", "classification": "class 1"}
{"molecule": "Cc1cnn(CC2CN(Cc3cccc(OC(C)C)c3)CCO2)c1 (stereo unspecified)", "classification": "class 1"}

Determine whether this molecule has INHIBITION no lower than -30%: Cc1cccc(C(C(=O)N(C)Cc2ccon2)N(C)C)c1 (stereo unspecified)
class 1

Determine whether this molecule has INHIBITION no lower than -30%: CCC(C)N(Cc1cccnc1)C(=O)c1ccc(F)c(O)c1 (stereo unspecified)
class 0

---

# System: Plasmodium falciparum
# protocol: Screen against P. falciparum Asexual Blood Stage (ABS), at 5uM
# Assay type: functional, Dd2
# experimental-context: tested at 5 uM
The whole screen tested about 65,000 compounds, of which about 2,100 (3.2%) showed an effect of 50% or more. The median lay at about -52%. The list comes from a sample in which strong results are over-represented; it also holds close analogues and randomly drawn compounds.
INHIBITION: recorded values
Response body: numeric value in %, unit text excluded.

Known results for molecules:
{"molecule": "Clc1ccc(CN2CCCCC2Cn2cncn2)c2ncccc12 (stereo unspecified)", "assay-result": 17.8}
{"molecule": "Cc1nc(CO[C@@H]2CN(Cc3cnn(C)c3)[C@@H]3COC[C@@H]32)cs1", "assay-result": -12.8}
{"molecule": "Clc1ccc2cccnc2c1CN1CCCCC1Cn1cncn1 (stereo unspecified)", "assay-result": 48.2}
{"molecule": "CC(=O)N1CCc2nc(-c3ccccc3)nc(NC(C)C)c2CC1", "assay-result": -25.6}

Quote Plasmodium falciparum INHIBITION for entry CN(C)C(=O)CN1CCc2ncnc(NC3CCC3)c2CC1 .
-76.8

Quote Plasmodium falciparum INHIBITION for entry O=C(NC1CC1)C1CCc2nnc(C3CC3)n21 (stereo unspecified) .
-100

---

# Test system: Plasmodium falciparum
# protocol: Screen against P. falciparum Asexual Blood Stage (ABS), at 5uM
# Format: functional, Dd2
# experimental-context: tested at 5 uM
Among all 65,000 compounds or so, about 2,100 (3.2%) showed an effect of 50% or more. The median lay at about -52%. This excerpt belongs to a sample that is enriched for strong results.
INHIBITION class ranges: bin 1 (below -20%), bin 2 (-20% to below 40%), bin 3 (40% or more)

Example results:
{"molecule": "COc1cccc(CN2CCCCCC2c2cccc(F)c2)c1O (stereo unspecified)", "target-under-test": "Plasmodium falciparum", "classification": "bin 3"}
{"molecule": "O=C(NCCc1ccccc1F)NCC(O)c1cccc(F)c1 (stereo unspecified)", "target-under-test": "Plasmodium falciparum", "classification": "bin 1"}
{"molecule": "O=C(c1cscn1)N1CCC2(CCN(S(=O)(=O)c3ccccc3)C2)C1 (stereo unspecified)", "target-under-test": "Plasmodium falciparum", "classification": "bin 1"}

Sort O=C([C@H]1CCCO1)N1CCC2(CCCN(CCOc3ccccc3)C2)C1 (stereo partly specified) into one of the categories.
bin 1

Sort Cc1cnn(CCNCC(O)COc2ccc(Cl)cc2)c1 (stereo unspecified) into one of the categories.
bin 2

Sort CC(=O)c1c(C)nn(CC(=O)Nc2ccc(Br)cc2)c1C into one of the categories.
bin 3

Sort Cc1cccc(-c2nc(N)nc3c2CN(C(=O)c2cc(C)n[nH]2)C3C)c1 (stereo unspecified) into one of the categories.
bin 2

Sort CC(C)COC(=O)N1CC(=O)N(CCc2ccccc2)CC(O)C1 (stereo unspecified) into one of the categories.
bin 1

Sort CN(C)C(C(=O)NCC1(N(C)C)CCOCC1)c1ccccc1F (stereo unspecified) into one of the categories.
bin 2

Sort COc1cc(CNCC2CNc3ccnn3C2)ccn1 (stereo unspecified) into one of the categories.
bin 1

Sort Cc1cccc(C2CCCCCN2Cc2cn(C)nc2C)c1 (stereo unspecified) into one of the categories.
bin 2

---

# Test system: Plasmodium falciparum
# protocol: Screen against P. falciparum Asexual Blood Stage (ABS), at 5uM
# Type: functional, Dd2
# experimental-context: tested at 5 uM
The whole screen tested about 65,000 compounds, of which about 2,100 (3.2%) showed an effect of 50% or more. The median lay at about -52%. This is one part of a sample in which strong results are shown more often than they occur.
measured-parameter: INHIBITION (%)
Response body: numeric value in %, unit text excluded.

{"molecule": "CC(C)NC(=O)C1(Cc2ccccc2-c2cncnc2)CCCNC1 (stereo not drawn)", "target-under-test": "Plasmodium falciparum", "INHIBITION (%)": -14.3}
{"molecule": "Cn1cc(N2C(=O)CC[C@@H]3[C@H]2CCN3C(=O)c2cscn2)cn1", "target-under-test": "Plasmodium falciparum", "INHIBITION (%)": -22.8}
{"molecule": "CNC(=O)c1cn[nH]c1C1(C)CCCN(Cc2ccccn2)C1 (stereo not drawn)", "target-under-test": "Plasmodium falciparum", "INHIBITION (%)": 61.9}
{"molecule": "Cc1ccc(CN2CCC3(CCCN(Cc4ccc(F)c(F)c4)C3)C2)o1 (stereo not drawn)", "target-under-test": "Plasmodium falciparum", "INHIBITION (%)": 28.1}
{"molecule": "CC(C)N1[C@H](Cn2cccn2)C[C@@H]2CN(Cc3ccoc3)CC[C@@H]21", "target-under-test": "Plasmodium falciparum", "INHIBITION (%)": 40.6}

Consider the molecule CN1C(Cn2cccn2)C[C@@H]2CN(Cc3nccs3)CC[C@@H]21 (stereo partly drawn) . State its measured INHIBITION.
-108

Consider the molecule CN1C(Cn2cccn2)C[C@@H]2CN(Cc3cnn(C)c3)CC[C@@H]21 (stereo partly drawn) . State its measured INHIBITION.
-48.5
